The origin of these recorded values is patent US20250129086A1.

tested on: HCC827 (exon 19 deletion mutation); experiment: Cell antiproliferative assay (CTG, 72 h), HCC827; type: cell-based, human; settings: Homo sapiens, HCC827, 72 h, Table 2, HCC827 cells
So I've got a bunch of compounds here, and I need their IC50 values.

Prompt line: For the record COc1cc(N2CCN(C(=O)CN3CCC(c4ccc(NC5CCC(=O)NC5=O)cc4)CC3)CC2)ccc1Nc1ncc(C(F)(F)F)c(-c2cn(C)c3ccccc23)n1 (stereo not drawn) , what value of IC50 is listed for HCC827 (exon 19 deletion mutation)?
Response line: 100 to 1000 nM

Prompt line: Follow-up entry: COc1cc(N2CCN(C(=O)CN3CCC(c4ccccc4NC4CCC(=O)NC4=O)CC3)CC2)ccc1Nc1ncc(Cl)c(Nc2ccccc2C(C)=O)n1 (stereo not drawn)
Response line: 100 to 1000 nM

Prompt line: Follow-up entry: CNC(=O)c1ccccc1Nc1nc(Nc2ccc(N3CCN(C(=O)CN4CCC(c5ccc(NC6CCC(=O)NC6=O)cc5)CC4)CC3)cc2OC)ncc1Cl (stereo not drawn)
Response line: 10 to 100 nM

Prompt line: Follow-up entry: COc1cc(N2CCN(C(=O)CN3CCC(c4ccc(NC5CCC(=O)NC5=O)cc4)CC3)CC2)ccc1Nc1ncc(Cl)c(Nc2ccccc2OC)n1 (stereo not drawn)
Response line: 100 to 1000 nM

Prompt line: Follow-up entry: COc1cc(N2CCN(C(=O)CN3CCC(c4ccc(NC5CCC(=O)NC5=O)cc4)CC3)CC2C)ccc1Nc1ncc(Cl)c(Nc2ccccc2C(C)=O)n1 (stereo not drawn)
Response line: 100 to 1000 nM

Prompt line: Follow-up entry: C=CC(=O)Nc1cc(Nc2ncc(Cl)c(Nc3ccccc3C(C)=O)n2)c(OC)cc1N1CCN(C(=O)CN2CCC(c3ccc(NC4CCC(=O)NC4=O)cc3)CC2)CC1 (stereo not drawn)
Response line: 10 to 100 nM

Prompt line: Follow-up entry: COc1cc(N2CCN(C(=O)CN3CCC(c4ccc(NC5CCC(=O)NC5=O)cc4)CC3)CC2)ncc1Nc1ncc(C(F)(F)F)c(Nc2ccccc2C(C)=O)n1 (stereo not drawn)
Response line: 10 to 100 nM

Prompt line: Follow-up entry: COc1cc(N2CCN(C(=O)CN3CCC(c4ccc(NC5CCC(=O)NC5=O)cc4)CC3)C(C)C2)ccc1Nc1ncc(Cl)c(Nc2ccccc2C(C)=O)n1 (stereo not drawn)
Response line: 100 to 1000 nM

Prompt line: Follow-up entry: COc1cc(N2CCN(CC(=O)N3CCC(c4ccc(NC5CCC(=O)NC5=O)cc4)CC3)CC2)ccc1Nc1ncc(Cl)c(Nc2ccccc2C(C)=O)n1 (stereo not drawn)
Response line: 100 to 1000 nM

* * *

tested on: PC-9 (EGFR exon 19 deletion); test: Cell antiproliferative assay (CTG, 72 h), PC-9; assay type: cell-based, human; settings: Homo sapiens, PC-9, 72 h, Table 2, PC-9 cells
So I've got a bunch of molecules here, and I need their IC50 values.

Prompt line: // query IC50 value for entry COc1cc(N2CCN(C(=O)CN3CCC(c4ccc(NC5CCC(=O)NC5=O)cc4)CC3)CC2)ccc1Nc1ncc(Cl)c(Nc2cccc(F)c2)n1 (centres unmarked)
Response line: ≥ 1000 nM

Prompt line: Follow-up entry: COc1cc(N2CCN(C(=O)CN3CCC(c4ccc5c(N6CCC(=O)NC6=O)nn(C)c5c4)CC3)CC2)ccc1Nc1ncc(Cl)c(Nc2ccccc2)n1
Response line: ≥ 1000 nM

Prompt line: Follow-up entry: CNC(=O)c1ccccc1Nc1nc(Nc2cc(C)c(N3CCN(C(=O)CN4CCC(c5ccc(NC6CCC(=O)NC6=O)cc5)CC4)CC3)cc2OC)ncc1Br (centres unmarked)
Response line: 10 to 100 nM

Prompt line: Follow-up entry: O=C1CCC(Nc2ccc(C3CCN(CC(=O)N4CCN(c5ccc(Nc6ncc(Cl)c(Nc7ccccc7)n6)c(Cl)c5)CC4)CC3)cc2)C(=O)N1 (centres unmarked)
Response line: 100 to 1000 nM

Prompt line: Follow-up entry: COc1cc(N2CCN(C(=O)CN3CCC(c4ccc(NC5CCC(=O)NC5=O)cc4)CC3)CC2)ccc1Nc1ncc(Cl)c(Nc2ccc(Cl)cc2C(C)(C)O)n1 (centres unmarked)
Response line: 10 to 100 nM

Prompt line: Follow-up entry: CNC(=O)c1ccccc1Nc1nc(Nc2ccc(N3CCN(C(=O)CC4(F)CCN(c5ccc(NC6CCC(=O)NC6=O)cc5)CC4)CC3)cc2OC)ncc1Cl (centres unmarked)
Response line: 10 to 100 nM

Prompt line: Follow-up entry: COc1cc(N2CCN(C(=O)CN3CCC(c4ccc(NC5CCC(=O)NC5=O)cc4)CC3)CC2)ccc1Nc1ncc(C(F)(F)F)c(Nc2ccccc2)n1 (centres unmarked)
Response line: 100 to 1000 nM

Prompt line: Follow-up entry: O=C1CCC(Nc2ccc(C3CCN(CC(=O)N4CCN(c5ccc(-c6cc(F)c7c(c6)C(=O)N(C(C(=O)Nc6nccs6)c6ccccc6F)C7)cc5)CC4)CC3)cc2)C(=O)N1 (centres unmarked)
Response line: 100 to 1000 nM

Prompt line: Follow-up entry: COc1cc(N2CCN(C(=O)CN3CCC(c4ccc(NC5CCC(=O)NC5=O)cc4)CC3)CC2)c(C#N)cc1Nc1ncc(Br)c(Nc2ccccc2C(C)=O)n1 (centres unmarked)
Response line: 10 to 100 nM

Prompt line: Follow-up entry: CNC(=O)c1ccccc1Nc1nc(Nc2cc(C)c(N3CCN(C(=O)CN4CCC(c5ccc(NC6CCC(=O)NC6=O)cc5)CC4)C(C)C3)cc2OC)ncc1Br (centres unmarked)
Response line: 10 to 100 nM

Prompt line: Follow-up entry: COc1cc(N2CCC(N3CCN(C(=O)CN4CCC(c5ccc(NC6CCC(=O)NC6=O)cc5)CC4)CC3)CC2)ccc1Nc1ncc(Cl)c(Nc2ccccc2C(C)=O)n1 (centres unmarked)
Response line: ≥ 1000 nM

Prompt line: Follow-up entry: COc1cc(N2CCN(C(=O)CN3CCC(c4ccc(NC5CCC(=O)NC5=O)cc4)CC3)CC2)ccc1Nc1ncc(Cl)c(Nc2ccccc2NS(C)(=O)=O)n1 (centres unmarked)
Response line: 100 to 1000 nM

Prompt line: Follow-up entry: COc1ccc(Nc2nc(Nc3ccc(N4CCN(C(=O)CN5CCC(c6ccc(NC7CCC(=O)NC7=O)cc6)CC5)CC4)cc3OC)ncc2Cl)c(C(C)=O)c1 (centres unmarked)
Response line: 10 to 100 nM

Prompt line: Follow-up entry: COc1cc(N2CCN(C(=O)CN3CCC(c4ccc(NC5CCC(=O)NC5=O)cc4)CC3)CC2)c(C)cc1Nc1ncc(Br)c(Nc2ccccc2C(C)=O)n1 (centres unmarked)
Response line: 100 to 1000 nM

* * *

system: PC-9 (EGFR exon 19 deletion); experiment: Cell antiproliferative assay (CTG, 72 h), PC-9; assay type: cell-based, human; details: Homo sapiens, PC-9, 72 h, Table 2, PC-9 cells
assay.readout: IC50

Prompt line: // query IC50 value for entry COc1cc(N2CCN(C(=O)CN3CCC(c4ccc(NC5CCC(=O)NC5=O)cc4)CC3)CC2)c(C)cc1Nc1ncc(Cl)c(Nc2ccccc2)n1 (centres unmarked)
Response line: 100 to 1000 nM

Prompt line: Follow-up entry: COc1cc(N2CC(N(C)C(=O)CN3CCC(c4ccc(NC5CCC(=O)NC5=O)cc4)CC3)C2)ccc1Nc1ncc(Cl)c(Nc2ccccc2C(C)=O)n1 (centres unmarked)
Response line: ≥ 1000 nM

Prompt line: Follow-up entry: CP(C)(=O)c1ccccc1Nc1nc(Nc2ccc(N3CCN(C(=O)CN4CCC(c5ccc(NC6CCC(=O)NC6=O)cc5)CC4)CC3)cc2Cl)ncc1Cl (centres unmarked)
Response line: 100 to 1000 nM

Prompt line: Follow-up entry: COc1cc(N2CCN(C(=O)CN3CCC(c4ccc(NC5CCC(=O)NC5=O)cc4)CC3)CC2)ccc1Nc1ncc(C(F)(F)F)c(Nc2ccccc2C(=O)Nc2ccccc2)n1 (centres unmarked)
Response line: 100 to 1000 nM

Prompt line: Follow-up entry: COc1cc(N2CCN(C(=O)CC3CCN(c4ccc5c(c4)C(=O)N(C4CCC(=O)NC4=O)C5=O)CC3)CC2)ccc1Nc1ncc(Cl)c(Nc2ccccc2C(C)=O)n1 (centres unmarked)
Response line: ≥ 1000 nM

Prompt line: Follow-up entry: COc1cc(N2CCN(C(=O)CN3CCN(c4ccc(NC5CCC(=O)NC5=O)nc4)CC3)CC2)ccc1Nc1ncc(Cl)c(Nc2ccccc2C(C)=O)n1 (centres unmarked)
Response line: 100 to 1000 nM

Prompt line: Follow-up entry: COc1cc(N2CCN(C(=O)CN3CCC(c4ccc(NC5CCC(=O)NC5=O)nc4)CC3)CC2)ccc1Nc1ncc(Cl)c(Nc2ccccc2C(C)=O)n1 (centres unmarked)
Response line: 100 to 1000 nM

Prompt line: Follow-up entry: COc1cc(N2CCN(C(=O)CN3CCC(c4ccc(NC5CCC(=O)NC5=O)cc4)CC3)CC2)ccc1Nc1ncc(Cl)c(Nc2ccccc2)n1 (centres unmarked)
Response line: 100 to 1000 nM
